Experiment: collision cross section of modified peptide (TIMS, N2, iRT-aligned); higher = larger / more extended gas-phase ion
Details: charge state: 3; modification: Crotonyl
± gives the standard deviation.
So I've got a bunch of sequences here, and I need their collision cross section values.
Reply with a number, then the unit it belongs to.

Below are worked cases with known answers.
# Residue string, Measured value
rows = [
    ("SPSDSGYSYETIGKTTK [_SPSDSGYSYETIGK(Crotonyl)TTK_]", "528.2 ± 1.2 Å²"),
    ("DTPTSAGPNSFNKGK [_DTPTSAGPNSFNK(Crotonyl)GK_]", "462.19 Å²"),
    ("STGLELETPSLVPVKK [_STGLELETPSLVPVK(Crotonyl)K_]", "521.61 Å²"),
    ("ANLEKAQAELVGTADEATR [_ANLEK(Crotonyl)AQAELVGTADEATR_]", "577.75 ± 0.5 Å²"),
    ("GTITVSAQELKDNR [_GTITVSAQELK(Crotonyl)DNR_]", "483.09 ± 1.6 Å²"),
]

I need collision cross section for every entry listed below, if you could help.
1. FDDTNPEKEEAK [_FDDTNPEK(Crotonyl)EEAK_]
2. VYIASSSGSTAIKK [_VYIASSSGSTAIK(Crotonyl)K_]
3. DVNAAIAAIKTK [_DVNAAIAAIK(Crotonyl)TK_]
4. TPNLYIYSKK [_TPNLYIYSK(Crotonyl)K_]
5. IHVQSSSDSSDEPAEKR [_IHVQSSSDSSDEPAEK(Crotonyl)R_]
6. LLFSNTAAQKLR [_LLFSNTAAQK(Crotonyl)LR_]
7. TLDEILQEKK [_TLDEILQEK(Crotonyl)K_]

["439.29 Å²", "505.65 ± 0.46 Å²", "463.44 ± 4.2 Å²", "432.18 Å²", "506.27 ± 1.7 Å²", "483.58 ± 1.6 Å²", "444.38 ± 1.6 Å²"]

I need collision cross section for every entry listed below, if you could help.
1. IINEPTAAAIAYGLDKK [_IINEPTAAAIAYGLDK(Crotonyl)K_]
2. LFVGGIKEDTEEHHLR [_LFVGGIK(Crotonyl)EDTEEHHLR_]
3. ASDTSSETVFGKR [_ASDTSSETVFGK(Crotonyl)R_]
4. LGNDFHTNKR [_LGNDFHTNK(Crotonyl)R_]
5. PANEKATDDYHYEK [_PANEK(Crotonyl)ATDDYHYEK_]
6. SPDEAYAIAKK [_SPDEAYAIAK(Crotonyl)K_]
7. GADFLVTEVENGGSLGSKK [_GADFLVTEVENGGSLGSK(Crotonyl)K_]

["561.41 ± 1.2 Å²", "544.97 ± 1.3 Å²", "478.92 ± 1.3 Å²", "445.34 ± 2 Å²", "509.39 ± 1.3 Å²", "442.81 ± 1.6 Å²", "548.96 Å²"]

For every item in the list below, what is its measured collision cross section?
1. DAEAAEATAEGALKAEK [_DAEAAEATAEGALK(Crotonyl)AEK_]
2. LQDVSGQLSSSKK [_LQDVSGQLSSSK(Crotonyl)K_]
3. LLIVSTTPYSEKDTK [_LLIVSTTPYSEK(Crotonyl)DTK_]

1. 545.42 ± 1.3 Å²
2. 469.03 ± 3.7 Å²
3. 486.79 ± 2.7 Å²

Dear colleague, could you please provide collision cross section for the sequences listed below?
1. TQAYQDQKPGTSGLR [_TQAYQDQK(Crotonyl)PGTSGLR_]
2. LQAAYAGDKADDIQK [_LQAAYAGDK(Crotonyl)ADDIQK_]
3. GGPGSTLSFVGKR [_GGPGSTLSFVGK(Crotonyl)R_]
4. DYSAPVNFISAGLKK [_DYSAPVNFISAGLK(Crotonyl)K_]
5. DASTLQSQKAEGTGDAK [_DASTLQSQK(Crotonyl)AEGTGDAK_]
6. PASGAGAGAGAGKR [_PASGAGAGAGAGK(Crotonyl)R_]

480.34 ± 2.8 Å²
487.02 ± 2.8 Å²
427.61 ± 1.6 Å²
525.96 ± 1.3 Å²
513.07 ± 2.8 Å²
464.44 ± 2.8 Å²

----------
Assay: collision cross section of modified peptide (TIMS, N2, iRT-aligned); higher = larger / more extended gas-phase ion
Conditions: charge state: 2; modification: Hydroxyproline
Measure: collision cross section (Å²)
Give bare numbers, in Å².

Sample answers from the record:
# Substance, Measure, Measured value
rows = [
    ("GDIGETGVPGAEGPR [_GDIGETGVPGAEGP(Hydroxyproline)R_]", "collision cross section", 384.38),
    ("GLQGPPGK [_GLQGPP(Hydroxyproline)GK_]", "collision cross section", 294.56),
    ("FPGVGVLPGVPTGAGVK [_FPGVGVLP(Hydroxyproline)GVPTGAGVK_]", "collision cross section", 432.68),
    ("PGLQGPR [_P(Hydroxyproline)GLQGPR_]", "collision cross section", 288.12),
    ("GQKGEPGLPGHPGK [_GQKGEPGLP(Hydroxyproline)GHPGK_]", "collision cross section", 379.44),
]

Parameters: items (list). Returns: collision cross section for each item.
1. GGPGAPGAPGPKGESGDYK [_GGP(Hydroxyproline)GAPGAPGPKGESGDYK_]
2. GDAGEPGRPGSPGK [_GDAGEPGRPGSP(Hydroxyproline)GK_]
3. GEAGPTGPQGEPGVR [_GEAGPTGPQGEP(Hydroxyproline)GVR_]
4. LEKDYQPGITFIVVQK [_LEKDYQP(Hydroxyproline)GITFIVVQK_]
5. GEPGLPGHPGK [_GEPGLP(Hydroxyproline)GHPGK_]

[431.65, 357.84, 382.58, 457.03, 337.36]

----------
Experiment: collision cross section of modified peptide (TIMS, N2, iRT-aligned); higher = larger / more extended gas-phase ion
Details: charge state: 3; modification: Methyl (R)
Measure: collision cross section (Å²)
One number for each entry, in Å².

Worked examples, 5 sequences total:
# Residue string, collision cross section / Å²
rows = [
    ("GGGDRGGFGPGK [_GGGDR(Methyl (R))GGFGPGK_]", 412.06),
    ("GFGRGGAESHTFK [_GFGR(Methyl (R))GGAESHTFK_]", 473.29),
    ("DSRGGGGNFGPGPGSNFR [_DSR(Methyl (R))GGGGNFGPGPGSNFR_]", 480.39),
    ("SRFYSGFNSR [_SR(Methyl (R))FYSGFNSR_]", 436.64),
    ("RGATPPAPPR [_R(Methyl (R))GATPPAPPR_]", 463.88),
]

The following sequences each have a reported value; give each one's collision cross section.
1. APPIDRSILPTAPR [_APPIDR(Methyl (R))SILPTAPR_]
2. GSGLGARGSSYGVTSTESYK [_GSGLGAR(Methyl (R))GSSYGVTSTESYK_]
3. PARGLYSR [_PAR(Methyl (R))GLYSR_]

489.12
519.94
407.19

----------
Assay: collision cross section of modified peptide (TIMS, N2, iRT-aligned); higher = larger / more extended gas-phase ion
Conditions: charge state: 3; modification: HexNAc (ST)
Could you please report measured collision cross section for the items listed next?
Numbers only, in Å².

# Residue string, collision cross section, Å²
measured = [
    ("TLTPASSPVSSPSKHGDR [_TLTPASSPVSSPS(HexNAc (ST))KHGDR_]", 519.55),
]

Please state collision cross section for every sequence in the list that follows.
1. EVVKPVPITSPAVSK [_EVVKPVPIT(HexNAc (ST))SPAVSK_]
2. ISEILLDHGAPIQAK [_IS(HexNAc (ST))EILLDHGAPIQAK_]
3. SYISSQTNDTHK [_SYIS(HexNAc (ST))SQTNDTHK_]
4. SLIGKVDGTSHVTGK [_SLIGKVDGTSHVT(HexNAc (ST))GK_]
5. LSFGLEDEPLETATK [_LSFGLEDEPLET(HexNAc (ST))ATK_]
6. VEELEGEITTLNHK [_VEELEGEIT(HexNAc (ST))TLNHK_]
7. EEKPAVTAAPK [_EEKPAVT(HexNAc (ST))AAPK_]

1. 512.07
2. 559.32
3. 474.05
4. 501.68
5. 480.97
6. 511.94
7. 484.12

Hey, quick one: what's collision cross section for each of these?
1. FSYTSQHSDYGQR [_FS(HexNAc (ST))YTSQHSDYGQR_]
2. DHSKPISNPSDNK [_DHS(HexNAc (ST))KPISNPSDNK_]
3. KVTLSVLSR [_KVT(HexNAc (ST))LSVLSR_]
4. QQETAAAETETR [_QQETAAAETET(HexNAc (ST))R_]
5. FIHQQPQSSSPVYGSSAK [_FIHQQPQSSSPVYGS(HexNAc (ST))SAK_]

1: 502.75; 2: 479.5; 3: 463.47; 4: 483.44; 5: 528.58

Below are some sequences; for each one, tell me its collision cross section.
1. SLYASSPGGVYATR [_S(HexNAc (ST))LYASSPGGVYATR_]
2. ELANFDPSRPGPPSGR [_ELANFDPS(HexNAc (ST))RPGPPSGR_]
3. VILENIASHEPR [_VILENIAS(HexNAc (ST))HEPR_]
4. IGSLDNITHVPGGGNK [_IGS(HexNAc (ST))LDNITHVPGGGNK_]
5. IEDEQALGSQLQK [_IEDEQALGS(HexNAc (ST))QLQK_]

1. 478.28
2. 503.12
3. 492.7
4. 493.45
5. 499.3

For every item in the list below, what is its measured collision cross section?
1. LGSASSSHGSIQESHK [_LGS(HexNAc (ST))ASSSHGSIQESHK_]
2. KITESVAETAQTIK [_KITESVAETAQT(HexNAc (ST))IK_]
3. LSESHPDATEDLQR [_LS(HexNAc (ST))ESHPDATEDLQR_]
4. ITESVAETAQTIKK [_ITESVAET(HexNAc (ST))AQTIKK_]

[519.96, 504.11, 486.6, 499.78]
